target: HIV-1 integrase (IN) (Human immunodeficiency virus type 1 group M subtype B); test: In vitro integrase catalytic assay, 3'-processing (3'-P); format: biochemical; conditions: 400 nM IN, 20 nM 32P-labeled 21T/21B DNA, 37 °C, 2 h
Where a SMILES comes first, the peptide text is derived from it. [ ]: non-standard residue; d: D form. Bpa = N[C@@H](Cc1ccc(C(=O)c2ccccc2)cc1)C(=O)O
measurement_name: IC50

compound	result
CC[C@H](C)[C@H](NC(=O)[C@H](CCCNC(=N)N)NC(=O)[C@H](Cc1ccccc1)NC(=O)[C@H](Cc1c[nH]cn1)NC(=O)[C@H](C)NC(=O)[C@@H](N)Cc1ccccc1)C(=O)NCC(=O)O [Peptide 7a, FAHFRIG] (H-FAHFRIG-OH)	> 111 µM
CC[C@H](C)[C@H](NC(=O)[C@H](CCCNC(=N)N)NC(=O)[C@H](C)NC(=O)[C@H](Cc1c[nH]cn1)NC(=O)[C@@H](NC(=O)[C@@H](N)Cc1ccccc1)[C@@H](C)CC)C(=O)NCC(N)=O [Peptide 5b, FIHARIG-amide] (H-FIHARIG-NH2)	> 111 µM
CC[C@H](C)[C@H](NC(=O)[C@H](C)NC(=O)[C@H](Cc1ccccc1)NC(=O)[C@H](Cc1c[nH]cn1)NC(=O)[C@@H](NC(=O)[C@@H](N)Cc1ccccc1)[C@@H](C)CC)C(=O)NCC(N)=O [Peptide 4b, FIHFAIG-amide] (H-FIHFAIG-NH2)	> 111 µM
CC[C@H](C)[C@H](NC(=O)[C@H](CCCNC(=N)N)NC(=O)[C@H](Cc1ccccc1)NC(=O)[C@H](Cc1ccc(C(=O)c2ccccc2)cc1)NC(=O)[C@@H](NC(=O)[C@@H](N)Cc1ccccc1)[C@@H](C)CC)C(=O)NCC(=O)O [Peptide 12a, FIBFRIG] (H-FI[Bpa]FRIG-OH)	6.5 µM
